# System: velvetleaf (Abutilon theophrasti, ABUTH)
# protocol: Pre-emerge test, greenhouse herbicide activity screening
# Type: in vivo
# test_parameters: 250 g ai/ha; phytotoxicity rating 0-100, 14 days after application
Reported Pre-emerge Herbicidal Activity ABUTH values are given for each entry in this list.
Lab note: jot the number down without any unit.

Observe how each entry below is paired with its result.
{"record_smiles": "COc1c(Cl)cc(F)c(-n2c(=O)cc(C(F)(F)F)n(C)c2=O)c1NC(=O)OCc1c(F)cccc1F", "Pre-emerge Herbicidal Activity ABUTH": 100}
{"record_smiles": "COc1c(Cl)cc(F)c(-n2c(=O)cc(C(F)(F)F)n(C)c2=O)c1NC(=O)N(Cc1ccccc1)c1ccccc1", "Pre-emerge Herbicidal Activity ABUTH": 40}
{"record_smiles": "COc1c(Cl)cc(F)c(-n2c(=O)cc(C(F)(F)F)n(C)c2=O)c1NC(=O)NCc1ccccc1", "Pre-emerge Herbicidal Activity ABUTH": 100}

Now let's try a different one.
stdin: Tell me the measured Pre-emerge Herbicidal Activity ABUTH of COc1c(Cl)cc(F)c(-n2c(=O)cc(C(F)(F)F)n(C)c2=O)c1NC(=O)Nc1ccccc1 , please.
stdout: 100

---

# Tested on: ivyleaf morningglory (Ipomoea hederacea, IPOHE)
# protocol: Pre-emerge test, greenhouse herbicide activity screening
# Assay type: in vivo
# test_parameters: pre-emerge, 250 g ai/ha, 14 days after application, scale 0-100
measured_endpoint: phytotoxicity rating IPOHE

{"record_smiles": "COc1ccc(-n2c(=O)cc(C(F)(F)F)n(C)c2=O)c(NC(=O)c2ccc3ccccc3c2)c1", "study_target": "ivyleaf morningglory (Ipomoea hederacea, IPOHE)", "result": 35}
{"record_smiles": "COc1c(Cl)cc(F)c(-n2c(=O)cc(C(F)(F)F)n(C)c2=O)c1NC(=O)COc1ccc(Cl)cc1Cl", "study_target": "ivyleaf morningglory (Ipomoea hederacea, IPOHE)", "result": 100}
{"record_smiles": "COc1c(Cl)cc(Cl)c(-n2c(=O)cc(C(F)(F)F)n(C)c2=O)c1NC(=O)c1ccc2ccccc2c1", "study_target": "ivyleaf morningglory (Ipomoea hederacea, IPOHE)", "result": 30}

stdin: Consider the molecule Cc1c(Cl)cc(F)c(-n2c(=O)cc(C(F)(F)F)n(C)c2=O)c1NC(=O)C=Cc1ccccc1 and give its measured phytotoxicity rating IPOHE.
stdout: 100

stdin: Now this one: COc1c(Cl)cc(F)c(-n2c(=O)cc(C(F)(F)F)n(N)c2=O)c1NC(=O)C=Cc1ccccc1
stdout: 60

stdin: Entry COc1c(Cl)cc(F)c(-n2c(=O)cc(C(F)(F)F)n(C)c2=O)c1NC(=O)COc1ccc(Cl)cc1 please
stdout: 100

stdin: Next molecule: COc1c(Cl)cc(F)c(-n2c(=O)cc(C(F)(F)F)n(C)c2=O)c1NC(=O)CSC(C)C
stdout: 40

---

# Test system: common ragweed (Ambrosia artemisizfolia L., AMBEL)
# protocol: Post-emerge test, greenhouse herbicide activity screening
# Format: in vivo
# test_parameters: 63 g ai/ha; phytotoxicity rating 0-100 (0 no damage, 100 complete death), 14 days after application
The threshold is inclusive: Post-emerge Herbicidal Activity AMBEL of exactly 10 counts as TRUE; values below receive FALSE.

stdin: Decide: is the reported value of Post-emerge Herbicidal Activity AMBEL for COc1c(Cl)cc(F)c(-n2c(=O)cc(C(F)(F)F)n(C)c2=O)c1N=CN(C)C [Compound 1-31] equal to or greater than 10?
stdout: FALSE

stdin: COc1c(Cl)cc(F)c(-n2c(=O)c(NC(=O)C(F)(F)F)c(C(F)(F)F)n(C)c2=O)c1NC(=O)C(F)(F)F [2-12] ?
stdout: FALSE

stdin: Check COc1c(Cl)cc(F)c(-n2c(=O)cc(C(F)(F)F)n(C)c2=O)c1N=C(Cl)C(Cl)(Cl)Cl [Compound 1-30] too.
stdout: FALSE

stdin: Entry to check: COc1c(Cl)cc(F)c(-n2c(=O)cc(C(F)(F)F)n(C)c2=O)c1N(C(C)=O)C(C)=O [Compound 2-2]
stdout: FALSE

stdin: Now the same for CCCc1ccc(C(=O)N(C(=O)c2ccc(CCC)cc2)c2c(OC)c(Cl)cc(F)c2-n2c(=O)cc(C(F)(F)F)n(C)c2=O)cc1 [2-29]
stdout: TRUE

stdin: Same read-out for COc1c(Cl)cc(F)c(-n2c(=O)cc(C(F)(F)F)n(C)c2=O)c1NC(C)=O [2-1] ?
stdout: TRUE

stdin: What do you get for COc1c(Cl)cc(F)c(-n2c(=O)cc(C(F)(F)F)n(C)c2=O)c1NC(=O)c1cccc(C)c1 [2-23] ?
stdout: TRUE

stdin: Entry Cn1c(C(F)(F)F)cc(=O)n(-c2c(F)cc(Cl)c(O)c2N)c1=O [Compound 1-16] please
stdout: FALSE

stdin: Please answer likewise for COc1c(Cl)cc(F)c(-n2c(=O)cc(C(F)(F)F)n(N)c2=O)c1N [Compound 1-13]
stdout: TRUE

stdin: # iterate: COc1c(Cl)cc(F)c(-n2c(=O)cc(C(F)(F)F)n(C)c2=O)c1NC(=O)c1ccc(C(C)(C)C)cc1 [2-30]
stdout: FALSE

---

# System: field corn (Zea mays L., var. Dekalb 535, CORN)
# protocol: Post-emerge test, crop safety
# Type: in vivo
# test_parameters: 63 g ai/ha; post-emerge; 14 days after application; rating scale 0-100
# Lookup of reported Post-emerge Herbicidal Activity CORN (crop damage rating) keyed by entry

Some compounds with known Post-emerge Herbicidal Activity CORN (crop damage rating) results, for comparison:
{"compound": "COc1c(Cl)cc(F)c(-n2c(=O)cc(C(F)(F)F)n(C)c2=O)c1SCCO [17-5]", "result": 0}
{"compound": "COc1c(Cl)cc(F)c(-n2c(=O)cc(C(F)(F)F)n(C)c2=O)c1NNC(=O)c1ccccc1 [15-3]", "result": 25}
{"compound": "CCOC(=O)N(C)C(=O)NNc1c(OC)c(Cl)cc(F)c1-n1c(=O)cc(C(F)(F)F)n(C)c1=O [15-9]", "result": 30}
{"compound": "COc1c(Cl)cc(F)c(-n2c(=O)cc(C(F)(F)F)n(C)c2=O)c1SC(C)C [17-2]", "result": 0}
{"compound": "COc1c(Cl)cc(F)c(-n2c(=O)cc(C(F)(F)F)n(C)c2=O)c1NN=C(C)C [15-12]", "result": 80}
{"compound": "COc1c(Cl)cc(F)c(-n2c(=O)cc(C(F)(F)F)n(C)c2=O)c1NN=CC(C)c1ccccc1 (centres unmarked) [15-17]", "result": 35}
{"compound": "COc1c(Cl)cc(F)c(-n2c(=O)cc(C(F)(F)F)n(C)c2=O)c1NN=CCCSC [15-14]", "result": 20}
{"compound": "COc1c(Cl)cc(F)c(-n2c(=O)cc(C(F)(F)F)n(C)c2=O)c1NN=C1CCc2ccccc2C1 [15-18]", "result": 20}

# ---- query compound ----
stdin: What value of Post-emerge Herbicidal Activity CORN (crop damage rating) has been reported for the following compound? Cn1c(C(F)(F)F)cc(=O)n(-c2ccc(Cl)cc2/C=C/c2ccc3ccccc3c2)c1=O [14-59]
stdout: 0

---

# System: redroot pigweed (Amaranthus retroflexus, AMARE)
# protocol: Post-emerge test, greenhouse herbicide activity screening
# Format: in vivo
# test_parameters: 63 g ai/ha; post-emerge; 14 days after application; rating scale 0-100 (0 no damage, 100 complete death)
# Experimental: A standard greenhouse herbicide activity screening system was used to evaluate the herbicidal efficacy and crop safety of these test compounds. […] At 14 days after application of the test materials, phytotoxicity ratings were recorded. […]
Post-emerge Herbicidal Activity AMARE (phytotoxicity rating) values, listed per item
Give only the figure.

See these solved cases before continuing.
{"compound": "Cn1c(C(F)(F)F)cc(=O)n(-c2c(Cl)cc(Cl)cc2OC(=O)c2ccc(F)cc2F)c1=O", "number": 0}
{"compound": "COc1c(Cl)cc(F)c(-n2c(=O)cc(C(F)(F)F)n(C)c2=O)c1NN=C(C(F)(F)F)C(F)(F)F", "number": 95}
{"compound": "COc1c(Cl)cc(F)c(-n2c(=O)cc(C(F)(F)F)n(C)c2=O)c1OC(=O)c1ccc2ccccc2c1", "number": 0}

stdin: # get_value(readout= Post-emerge Herbicidal Activity AMARE (phytotoxicity rating), system= redroot pigweed (Amaranthus retroflexus, AMARE)) for CCOC(=O)C(Cl)Cc1c(OCC)c(Cl)cc(F)c1-n1c(=O)cc(C(F)(F)F)n(C)c1=O (stereo not drawn)
stdout: 95

stdin: Next entry: COc1c(Cl)cc(F)c(-n2c(=O)cc(C(F)(F)F)n(C)c2=O)c1NN=Cc1ccc(F)cc1F
stdout: 100

stdin: Same lookup for CCOC(=O)N(C)C(=O)NNc1c(OC)c(Cl)cc(F)c1-n1c(=O)cc(C(F)(F)F)n(C)c1=O , please.
stdout: 10
